Where do the numbers come from? From patent US20250092033A1.

tgt: MET D1228N (Homo sapiens, UniProt P08581, D1228N)
Construct: purchased Signalchem M52-12IG
Sequence (P08581 25-1390 D1228N): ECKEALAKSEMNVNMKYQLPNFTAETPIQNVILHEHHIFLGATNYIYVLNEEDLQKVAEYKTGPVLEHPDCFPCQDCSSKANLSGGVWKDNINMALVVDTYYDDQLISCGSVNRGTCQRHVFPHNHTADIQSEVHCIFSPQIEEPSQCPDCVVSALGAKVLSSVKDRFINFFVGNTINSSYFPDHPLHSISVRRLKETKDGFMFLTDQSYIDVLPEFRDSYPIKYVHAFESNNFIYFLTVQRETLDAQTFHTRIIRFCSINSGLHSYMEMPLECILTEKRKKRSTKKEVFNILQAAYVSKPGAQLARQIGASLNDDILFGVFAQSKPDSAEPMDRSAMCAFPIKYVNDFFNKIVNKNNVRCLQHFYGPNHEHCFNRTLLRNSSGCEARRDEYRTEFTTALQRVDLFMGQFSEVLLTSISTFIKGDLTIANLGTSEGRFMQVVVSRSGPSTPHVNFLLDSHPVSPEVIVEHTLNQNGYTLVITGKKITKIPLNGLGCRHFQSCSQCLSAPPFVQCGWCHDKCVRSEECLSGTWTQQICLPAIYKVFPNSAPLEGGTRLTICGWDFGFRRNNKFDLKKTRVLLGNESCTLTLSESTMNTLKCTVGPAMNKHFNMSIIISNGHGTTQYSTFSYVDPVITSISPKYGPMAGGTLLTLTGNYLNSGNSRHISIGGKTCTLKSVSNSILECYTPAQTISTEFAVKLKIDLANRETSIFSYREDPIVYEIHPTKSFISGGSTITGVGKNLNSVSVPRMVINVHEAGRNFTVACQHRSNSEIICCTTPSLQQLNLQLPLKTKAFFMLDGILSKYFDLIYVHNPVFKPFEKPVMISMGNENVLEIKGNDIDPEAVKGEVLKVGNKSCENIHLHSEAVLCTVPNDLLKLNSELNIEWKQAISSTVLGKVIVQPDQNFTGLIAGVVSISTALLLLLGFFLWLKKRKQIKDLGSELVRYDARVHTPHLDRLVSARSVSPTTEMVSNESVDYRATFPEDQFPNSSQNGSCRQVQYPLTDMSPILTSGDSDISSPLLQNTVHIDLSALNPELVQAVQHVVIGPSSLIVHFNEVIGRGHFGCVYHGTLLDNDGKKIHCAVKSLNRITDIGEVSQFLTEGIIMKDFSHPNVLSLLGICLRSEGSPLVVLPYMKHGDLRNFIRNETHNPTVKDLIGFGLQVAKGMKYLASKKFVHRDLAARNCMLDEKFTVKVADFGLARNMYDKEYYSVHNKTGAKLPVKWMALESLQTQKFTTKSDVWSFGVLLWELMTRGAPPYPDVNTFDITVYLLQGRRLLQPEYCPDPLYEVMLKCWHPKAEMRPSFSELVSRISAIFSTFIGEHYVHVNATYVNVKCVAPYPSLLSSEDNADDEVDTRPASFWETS
method-description: Kinase inhibition experiment (HTRF KinEASE-TK kit), mutant MET D1228N
Format: biochemical
stated-conditions: 10 concentrations, 3-fold dilution
value-kind: IC50
// unit must come after the numeric part

These recorded examples may help you get a feel for the data.
[
  {
    "compound": "Cc1ccc(C(=O)Nc2ccc(Oc3ccnc4[nH]nc(NCC(O)CO)c34)c(F)c2)[n+]([O-])c1-c1ccc(F)cc1 (stereo not drawn)",
    "IC50": "25.4 nM"
  },
  {
    "compound": "CC[C@@H](CO)Nc1n[nH]c2nccc(Oc3ccc(NC(=O)c4ccc(Cl)c(-c5ccc(F)cc5)[n+]4[O-])cc3F)c12",
    "IC50": "20.3 nM"
  }
]

Could you now consider this next compound?
Name the recorded IC50 for O=C(Nc1ccc(Oc2ccnc3[nH]nc(NC4CC(CO)C4)c23)c(Cl)c1)c1cccc(-c2ccc(F)cc2)[n+]1[O-] (stereo not drawn) . 22.5 nM

----------
Kindly state IC50 for each of the entries shown.
tgt: MET F1200I (Homo sapiens, UniProt P08581, F1200I)
Construct: purchased Signalchem M52-12GG/Y767-2
Sequence (P08581 25-1390 F1200I): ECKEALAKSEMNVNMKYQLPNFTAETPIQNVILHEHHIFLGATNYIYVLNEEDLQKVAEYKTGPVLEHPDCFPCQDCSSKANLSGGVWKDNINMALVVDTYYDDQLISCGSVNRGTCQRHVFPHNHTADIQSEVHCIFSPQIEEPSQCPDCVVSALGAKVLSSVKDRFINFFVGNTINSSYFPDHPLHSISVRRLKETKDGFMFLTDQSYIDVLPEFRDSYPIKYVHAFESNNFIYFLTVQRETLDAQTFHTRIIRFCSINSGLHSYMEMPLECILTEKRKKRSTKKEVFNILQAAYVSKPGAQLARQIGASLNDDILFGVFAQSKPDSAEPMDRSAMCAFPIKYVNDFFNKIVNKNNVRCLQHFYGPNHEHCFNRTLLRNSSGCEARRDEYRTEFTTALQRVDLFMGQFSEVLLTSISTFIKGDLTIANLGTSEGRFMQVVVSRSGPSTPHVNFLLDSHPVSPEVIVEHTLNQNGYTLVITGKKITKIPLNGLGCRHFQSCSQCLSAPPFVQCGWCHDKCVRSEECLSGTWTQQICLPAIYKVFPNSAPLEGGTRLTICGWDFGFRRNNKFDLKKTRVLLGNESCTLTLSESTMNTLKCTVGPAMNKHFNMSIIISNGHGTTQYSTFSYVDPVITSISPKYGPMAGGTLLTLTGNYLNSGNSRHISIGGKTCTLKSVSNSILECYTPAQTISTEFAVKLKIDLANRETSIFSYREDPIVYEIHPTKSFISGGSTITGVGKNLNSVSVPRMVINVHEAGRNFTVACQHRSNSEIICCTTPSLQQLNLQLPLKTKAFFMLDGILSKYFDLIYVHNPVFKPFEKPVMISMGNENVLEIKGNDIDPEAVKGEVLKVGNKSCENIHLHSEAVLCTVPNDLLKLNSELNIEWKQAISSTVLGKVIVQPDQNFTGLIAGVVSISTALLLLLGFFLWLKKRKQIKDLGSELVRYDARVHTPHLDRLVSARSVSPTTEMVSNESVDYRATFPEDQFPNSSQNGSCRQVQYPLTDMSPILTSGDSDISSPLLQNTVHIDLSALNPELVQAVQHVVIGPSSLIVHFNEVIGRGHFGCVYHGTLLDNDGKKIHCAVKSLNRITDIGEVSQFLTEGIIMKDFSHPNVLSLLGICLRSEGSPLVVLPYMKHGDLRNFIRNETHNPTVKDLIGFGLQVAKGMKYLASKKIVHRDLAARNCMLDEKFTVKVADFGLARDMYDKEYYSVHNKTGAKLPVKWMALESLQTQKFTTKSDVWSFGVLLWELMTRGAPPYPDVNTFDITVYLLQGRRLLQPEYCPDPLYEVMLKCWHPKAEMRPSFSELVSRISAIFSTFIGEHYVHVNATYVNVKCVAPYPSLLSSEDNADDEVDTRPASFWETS
method-description: Kinase inhibition experiment (HTRF KinEASE-TK kit), mutant MET F1200I
Type: biochemical
stated-conditions: 10 concentrations, 3-fold dilution

The cases that follow already have their IC50 on record.
[
  {
    "compound": "O=C(Nc1ccc(Oc2ccnc3[nH]nc(N[C@H]4C[C@H](O)C4)c23)c(F)c1)c1cccc(-c2ccc(F)cc2)[n+]1[O-] [Final product 23]",
    "reported-measurement": "12.5 nM"
  },
  {
    "compound": "C[C@H](CO)Nc1n[nH]c2nccc(Oc3ccc(NC(=O)c4ccc(F)c(-c5ccc(F)cc5)[n+]4[O-])cc3Cl)c12 [Final product 117]",
    "reported-measurement": "0.9 nM"
  },
  {
    "compound": "O=C(Nc1ccc(Oc2ccnc3[nH]nc(N4CCC[C@@H](CO)C4)c23)c(F)c1)c1cccc(-c2ccc(F)cc2)[n+]1[O-] [Final product 32]",
    "reported-measurement": "10.1 nM"
  },
  {
    "compound": "O=C(Nc1ccc(Oc2ccnc3[nH]nc(N[C@H]4CC[C@H](O)CC4)c23)c(F)c1)c1ccc(Cl)c(-c2ccc(F)cc2)[n+]1[O-] [Final product 64]",
    "reported-measurement": "22.5 nM"
  },
  {
    "compound": "C[C@H](CO)Nc1n[nH]c2nccc(Oc3ccc(NC(=O)c4ccc(S(C)(=O)=O)c(-c5ccc(F)cc5)[n+]4[O-])cc3F)c12 [Final product 87]",
    "reported-measurement": "23 nM"
  }
]

Let us move to another entry and its IC50.
Name the recorded IC50 for C[C@H](CO)Nc1n[nH]c2nccc(Oc3ccc(NC(=O)c4ccc(N(C)C)c(-c5ccc(F)cc5)[n+]4[O-])cc3F)c12 [Final product 89] . 17.6 nM

----------
Could you please report measured IC50 for the items listed next?
tgt: MET D1228N (Homo sapiens, UniProt P08581, D1228N)
Construct: purchased Signalchem M52-12IG
method-description: Kinase inhibition experiment (HTRF KinEASE-TK kit), mutant MET D1228N
Format: biochemical
stated-conditions: 10 concentrations, 3-fold dilution
Give bare numbers, in nM.

[
  {
    "compound": "O=C(Nc1ccc(Oc2ccnc3[nH]nc(NCC4(CO)CC(O)C4)c23)c(F)c1)c1cccc(-c2ccc(F)cc2)[n+]1[O-] (stereo not drawn)",
    "tgt": "MET D1228N (Homo sapiens, UniProt P08581, D1228N)",
    "reported-measurement": 29.9
  },
  {
    "compound": "C[C@H](CO)Nc1n[nH]c2nccc(Oc3ccc(NC(=O)c4cccc(-c5ccc(Cl)cc5)[n+]4[O-])cc3Cl)c12",
    "tgt": "MET D1228N (Homo sapiens, UniProt P08581, D1228N)",
    "reported-measurement": 28.7
  },
  {
    "compound": "[2H]C([2H])([2H])c1ccc(C(=O)Nc2ccc(Oc3ccnc4[nH]nc(N[C@H](C)CO)c34)c(Cl)c2)[n+]([O-])c1-c1ccc(F)cc1",
    "tgt": "MET D1228N (Homo sapiens, UniProt P08581, D1228N)",
    "reported-measurement": 15.5
  },
  {
    "compound": "C[C@H](CO)Nc1n[nH]c2nccc(Oc3ccc(NC(=O)c4ccc(OC(F)F)c(-c5ccc(F)cc5)[n+]4[O-])cc3Cl)c12",
    "tgt": "MET D1228N (Homo sapiens, UniProt P08581, D1228N)",
    "reported-measurement": 18.5
  },
  {
    "compound": "O=C(Nc1ccc(Oc2ccnc3[nH]nc(NC4COCC4O)c23)c(F)c1)c1cccc(-c2ccc(F)cc2)[n+]1[O-] (stereo not drawn)",
    "tgt": "MET D1228N (Homo sapiens, UniProt P08581, D1228N)",
    "reported-measurement": 29.5
  }
]

Switching to the query record.
Return reported IC50; argument: `O=C(Nc1ccc(Oc2ccnc3[nH]nc(N[C@H]4COC[C@@H]4O)c23)c(Cl)c1)c1ccc(Cl)c(-c2ccc(F)cc2)[n+]1[O-]` 30.1

----------
tgt: MET D1228N (Homo sapiens, UniProt P08581, D1228N)
Construct: purchased Signalchem M52-12IG
method-description: Kinase inhibition experiment (HTRF KinEASE-TK kit), mutant MET D1228N
Format: biochemical
stated-conditions: 10 concentrations, 3-fold dilution
Label scheme for IC50: low bracket: < 20 nM; middle bracket: ≥ 20 nM and < 30 nM; high bracket: ≥ 30 nM

Before answering, review these 6 worked examples.
[
  {
    "compound": "C[C@H](CO)Nc1n[nH]c2nccc(Oc3ccc(NC(=O)c4ccc(Cl)c(-c5ccc(F)cc5)[n+]4[O-])c(F)c3)c12",
    "assigned-class": "low bracket"
  },
  {
    "compound": "O=C(Nc1ccc(Oc2ccnc3[nH]nc(N[C@@H]4CCC(O)C4)c23)c(F)c1)c1ccc(Cl)c(-c2ccc(F)cc2)[n+]1[O-] (stereo partly drawn)",
    "assigned-class": "middle bracket"
  },
  {
    "compound": "O=C(Nc1ccc(Oc2ccnc3[nH]cc(-c4cccnc4)c23)c(F)c1)c1ccc(Cl)c(-c2ccc(F)cc2)[n+]1[O-] [Final product 185, reference compound]",
    "assigned-class": "high bracket"
  },
  {
    "compound": "O=C(Nc1ccc(Oc2ccnc3[nH]nc(N4CC5(CC(O)C5)C4)c23)c(F)c1)c1cccc(-c2ccc(F)cc2)[n+]1[O-]",
    "assigned-class": "middle bracket"
  },
  {
    "compound": "C[C@H](CO)Nc1n[nH]c2nccc(Oc3ccc(NC(=O)c4ccc(Cl)c(-c5ccc(Cl)cc5)[n+]4[O-])cc3F)c12",
    "assigned-class": "high bracket"
  },
  {
    "compound": "O=C(Nc1ccc(Oc2ccnc3[nH]nc(N4CCC(F)(CO)CC4)c23)c(F)c1)c1cccc(-c2ccc(F)cc2)[n+]1[O-]",
    "assigned-class": "low bracket"
  }
]

Tag the class for CC(O)C(CO)CNc1n[nH]c2nccc(Oc3ccc(NC(=O)c4cccc(-c5ccc(F)cc5)[n+]4[O-])cc3Cl)c12 (stereo not drawn) low bracket

Lab log: `C[C@H](CO)Nc1n[nH]c2nccc(Oc3ccc(NC(=O)c4ccc(C(F)(F)F)c(-c5ccc(F)cc5)[n+]4[O-])cc3F)c12` — assign IC50 category high bracket

----------
tgt: MET F1200I (Homo sapiens, UniProt P08581, F1200I)
Construct: purchased Signalchem M52-12GG/Y767-2
method-description: Kinase inhibition experiment (HTRF KinEASE-TK kit), mutant MET F1200I
Type: biochemical
stated-conditions: 10 concentrations, 3-fold dilution
value-kind: log10(IC50) (log10 of the value in nM)
Hello, just confirming the data are log10 of IC50 with units of nM.

In the examples that follow, each entry is paired with its recorded log10(IC50).
[
  {
    "molecule": "C[C@H](CO)Nc1n[nH]c2nccc(Oc3ccc(NC(=O)c4cccc(-c5ccc(Cl)cc5)[n+]4[O-])cc3Cl)c12 [Final product 116]",
    "log10(IC50)": 1.03
  },
  {
    "molecule": "Cc1ccc(C(=O)Nc2ccc(Oc3ccnc4[nH]nc(NCC(O)CO)c34)c(F)c2)[n+]([O-])c1-c1ccc(F)cc1 (stereo not drawn) [Final product 69]",
    "log10(IC50)": 1.09
  },
  {
    "molecule": "C[C@H](CO)Nc1n[nH]c2nccc(Oc3ccc(NC(=O)c4ccnc(-c5ccc(F)cc5)[n+]4[O-])cc3F)c12 [Final product 96]",
    "log10(IC50)": 0.65
  },
  {
    "molecule": "C[C@H](CO)Nc1n[nH]c2nccc(Oc3ccc(NC(=O)c4cccc(-c5ccc(F)cc5)[n+]4[O-])cc3Cl)c12 [Final product 97]",
    "log10(IC50)": 0.85
  },
  {
    "molecule": "C[C@H](CO)Nc1n[nH]c2nccc(Oc3ccc(NC(=O)c4ccc(OC(F)F)c(-c5ccc(F)cc5)[n+]4[O-])cc3Cl)c12 [Final product 139]",
    "log10(IC50)": 1.18
  },
  {
    "molecule": "O=C(Nc1ccc(Oc2ccnc3[nH]nc(N4CCC(CO)CC4)c23)c(F)c1)c1cccc(-c2ccc(F)cc2)[n+]1[O-] [Final product 28]",
    "log10(IC50)": 0.98
  },
  {
    "molecule": "[2H]C([2H])([2H])c1ccc(C(=O)Nc2ccc(Oc3ccnc4[nH]nc(N[C@H](C)CO)c34)c(Cl)c2)[n+]([O-])c1-c1ccc(F)cc1 [Final product 134]",
    "log10(IC50)": 1.45
  },
  {
    "molecule": "C[C@H](CO)Nc1n[nH]c2nccc(Oc3ccc(NC(=O)c4ccc(OCC(F)(F)F)c(-c5ccc(F)cc5)[n+]4[O-])cc3Cl)c12 [Final product 142]",
    "log10(IC50)": 1.52
  }
]

Return reported log10(IC50) values for all items listed beneath this line.
1. CCC(CO)Nc1n[nH]c2nccc(Oc3ccc(NC(=O)c4cccc(-c5ccc(F)cc5)[n+]4[O-])cc3F)c12 (stereo not drawn) [Final product 4]
2. CC1(CO)CCN(c2n[nH]c3nccc(Oc4ccc(NC(=O)c5cccc(-c6ccc(F)cc6)[n+]5[O-])cc4F)c23)CC1 [Final product 29]
3. C[C@H](CO)Nc1n[nH]c2nccc(Oc3ccc(NC(=O)c4ccc(Cl)c(-c5ccc(F)cc5)[n+]4[O-])cc3F)c12 [Final product 57]
4. Cc1ccc(C(=O)Nc2ccc(Oc3ccnc4[nH]nc(N[C@H](C)CO)c34)c(Cl)c2)[n+]([O-])c1-c1ccc(F)cc1 [Final product 124]

1: 1.00; 2: 1.31; 3: 0.45; 4: -0.10
